# assay_procedure: Half life in dog after 1 mg/kg intravenous dose
# conditions: in vivo
experimental_endpoint: half-life
Returns: string containing the number followed by the unit.

The compound identified as Cc1nc2cc(OC[C@H](O)CN3CCN(Cc4noc(-c5ccc(C(F)(F)F)cc5)n4)C[C@@H]3C)ccc2s1 registered its half-life at 65 h

###

# assay_procedure: Metabolic stability as percent of drug remaining after incubation with human liver S9 for 30 min was determined
# Assay type: ADME, subcellular, Liver S9 fraction
# conditions: liver S9, read-out: Activity
Categorize each record by its remaining at 0.5 h using low: < 30%; moderate: ≥ 30% and < 40%; high: ≥ 40%

Problem: Kindly identify the class of Cc1nc2cc(OC[C@H](O)CN3CCN(Cc4noc(-c5ccc(Cl)cc5Cl)n4)C[C@@H]3C)ccc2s1 (stereo in doubt; 31) .
Result: low

Problem: Kindly identify the class of Cc1cccc(-c2nc(CN3CCN(C[C@@H](O)COc4ccc5sc(C)nc5c4)CC3)no2)c1 .
Result: moderate

Problem: Kindly identify the class of Cc1nc2cc(OC[C@H](O)CN3CCN(Cc4nc(-c5ccc(C(F)(F)F)cc5)no4)CC3)ccc2s1 .
Result: high

Problem: Kindly identify the class of Cc1nc2cc(OC[C@H](O)CN3CCN(Cc4noc(-c5ccc(C(C)C)cc5)n4)CC3)ccc2s1 .
Result: moderate

Problem: Kindly identify the class of Cc1nc2cc(OC[C@H](O)CN3CCN(Cc4noc(-c5ccc(C(F)(F)F)cc5)n4)CC3)ccc2s1 .
Result: high

Problem: Kindly identify the class of Cc1nc2cc(OC[C@H](O)CN3CCN(Cc4nc(-c5ccc(Cl)cc5Cl)no4)CC3)ccc2s1 .
Result: low

Problem: Kindly identify the class of Cc1nc2cc(OC[C@H](O)CN3CCN(Cc4nc(-c5ccc(Cl)cc5)no4)CC3)ccc2s1 .
Result: high

Problem: Kindly identify the class of Cc1nc2cc(OC[C@H](O)CN3CCN(Cc4noc(-c5ccc(Cl)cc5Cl)n4)CC3)ccc2s1 .
Result: moderate

Problem: Kindly identify the class of Cc1nc2cc(OC[C@H](O)CN3CCN(Cc4noc(-c5ccc(C(F)(F)F)cc5)n4)C[C@@H]3C)ccc2s1 .
Result: high

Problem: Kindly identify the class of Cc1nc2cc(OC[C@H](O)CN3CCN(Cc4nc(-c5ccc(C(C)C)cc5)no4)CC3)ccc2s1 .
Result: low

Problem: Kindly identify the class of Cc1nc2cc(OC[C@H](O)CN3CCN(Cc4noc(-c5ccc(Cl)cc5)n4)CC3)ccc2s1 .
Result: high

Problem: Kindly identify the class of Cc1nc2cc(OC[C@H](O)CN3CCN(Cc4nc(-c5ccc(Cl)c(Cl)c5)no4)CC3)ccc2s1 .
Result: moderate

Problem: Kindly identify the class of Cc1nc2cc(OC[C@H](O)CN3CCN(Cc4nnc(-c5ccc(Cl)cc5)o4)CC3)ccc2s1 .
Result: moderate

Problem: Kindly identify the class of Cc1nc2cc(OC[C@H](O)CN3CCN(Cc4coc(-c5ccc(C(F)(F)F)cc5)n4)CC3)ccc2s1 .
Result: high
